target: PsLYK9-ECD (Lathyrus oleraceus, UniProt A0A9D5AD18); construct: gene KIW84_053210; corresponds to residues 31-235), GP67 signal in vector, 6xHis tag, Sf9 cells, predicted 23 kDa, about 35 kDa on blot; RED-tris-NTA labelled; assay: microscale thermophoresis; type: binding; details: 50 mM Tris pH 7.4, 10 mM MgCl2, 150 mM NaCl, 0.05% Tween 20, 25 °C; 20 nM RED-tris-NTA labelled protein; read-out: Kd, μM (±SD)
Sequence (A0A9D5AD18 26-230): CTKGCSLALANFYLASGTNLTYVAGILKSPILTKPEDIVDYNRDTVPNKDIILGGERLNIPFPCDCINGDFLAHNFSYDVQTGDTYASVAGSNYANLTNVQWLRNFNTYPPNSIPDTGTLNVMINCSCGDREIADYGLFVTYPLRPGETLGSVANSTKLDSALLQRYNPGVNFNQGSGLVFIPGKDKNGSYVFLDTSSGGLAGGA
Readout: Kd (µM)
Write the answer as a number in µM, unit excluded.

// worked examples, Kd included
INSERT INTO assay_data (compound, measured) VALUES
  ('N[C@H]1[C@H](O[C@H]2[C@H](O)[C@@H](N)[C@H](O[C@H]3[C@H](O)[C@@H](N)[C@H](O[C@H]4[C@H](O)[C@@H](N)[C@H](O[C@H]5[C@H](O)[C@@H](N)[C@H](O[C@H]6[C@H](O)[C@@H](N)[C@H](O[C@H]7[C@H](O)[C@@H](N)C(O)O[C@@H]7CO)O[C@@H]6CO)O[C@@H]5CO)O[C@@H]4CO)O[C@@H]3CO)O[C@@H]2CO)O[C@H](CO)[C@@H](O)[C@@H]1O (stereo partly drawn) [CO7-DA]', 31),
  ('N[C@H]1[C@H](O[C@H]2[C@H](O)[C@@H](N)[C@H](O[C@H]3[C@H](O)[C@@H](N)[C@H](O[C@H]4[C@H](O)[C@@H](N)[C@H](O[C@H]5[C@H](O)[C@@H](N)C(O)O[C@@H]5CO)O[C@@H]4CO)O[C@@H]3CO)O[C@@H]2CO)O[C@H](CO)[C@@H](O)[C@@H]1O (stereo partly drawn) [CO5-DA]', 76);

IN: So what's the measured Kd for this one? N[C@H]1[C@H](O[C@H]2[C@H](O)[C@@H](N)[C@H](O[C@H]3[C@H](O)[C@@H](N)[C@H](O[C@H]4[C@H](O)[C@@H](N)[C@H](O[C@H]5[C@H](O)[C@@H](N)[C@H](O[C@H]6[C@H](O)[C@@H](N)C(O)O[C@@H]6CO)O[C@@H]5CO)O[C@@H]4CO)O[C@@H]3CO)O[C@@H]2CO)O[C@H](CO)[C@@H](O)[C@@H]1O (stereo partly drawn) [CO6-DA]
OUT: 42

* * *

Reported Kd values for a set of molecules
molecular target: PsLYK9-ECD (Lathyrus oleraceus); construct: gene KIW84_053210; corresponds to residues 31-235), GP67 signal in vector, 6xHis tag, Sf9 cells, predicted 23 kDa, about 35 kDa on blot; RED-tris-NTA labelled; assay: microscale thermophoresis; format: binding; conditions: 50 mM Tris pH 7.4, 10 mM MgCl2, 150 mM NaCl, 0.05% Tween 20, 25 °C; 20 nM RED-tris-NTA labelled protein; read-out: Kd, μM (±SD)
Numbers only here, please. The scale is µM.

INSERT INTO assay_data (molecule, measured) VALUES
  ('CC(=O)N[C@H]1[C@H](O[C@H]2[C@H](O)[C@@H](NC(C)=O)C(O)O[C@@H]2CO)O[C@H](CO)[C@@H](O[C@@H]2O[C@H](CO)[C@@H](O[C@@H]3O[C@H](CO)[C@@H](O)[C@H](O)[C@H]3NC(C)=O)[C@H](O)[C@H]2NC(C)=O)[C@@H]1O (some centres unmarked) [CO4]', 2.1);

IN: Data request, read-out Kd, for CC(=O)N[C@H]1[C@H](O[C@H]2[C@H](O)[C@@H](NC(C)=O)[C@H](O[C@H]3[C@H](O)[C@@H](NC(C)=O)C(O)O[C@@H]3CO)O[C@@H]2CO)O[C@H](CO)[C@@H](O[C@@H]2O[C@H](CO)[C@@H](O[C@@H]3O[C@H](CO)[C@@H](O)[C@H](O)[C@H]3NC(C)=O)[C@H](O)[C@H]2NC(C)=O)[C@@H]1O (some centres unmarked) [CO5]
OUT: 5
